# TARGET ENTITY: Cyclin-dependent kinase 2 (Homo sapiens)
pKi: −log10 of the molar value.
Please use true whenever pKi is not below 7, and false whenever it is.

Example results:
>>> assigned_label("CCNS(=O)(=O)c1cccc(Nc2nccc(-c3sc(N)nc3C)n2)c1")
"true"
>>> assigned_label("CCNc1nc(C)c(-c2ccnc(Nc3cccc(S(N)(=O)=O)c3)n2)s1")
"false"
>>> assigned_label("CNc1nc(C)c(-c2ccnc(Nc3cccc(S(=O)(=O)NC)c3)n2)s1")
"true"
>>> assigned_label("CNS(=O)(=O)c1cccc(Nc2nccc(-c3sc(N)nc3C)n2)c1")
"true"
>>> assigned_label("Cc1ccc(Nc2nccc(-c3sc(=O)n(C)c3C)n2)cc1[N+](=O)[O-]")
"true"

Evaluate `CNc1nc(C)c(-c2ccnc(Nc3cccc(S(N)(=O)=O)c3)n2)s1` : pKi at minimum 7?
true

Evaluate `Cc1ccc(Nc2nccc(-c3sc(N)nc3C)n2)cc1S(=O)(=O)N1CCOCC1` : pKi at minimum 7?
false

Evaluate `Cc1c(-c2ccnc(Nc3cccc(C#N)c3)n2)sc(=O)n1C` : pKi at minimum 7?
true

Evaluate `CNc1nc(C)c(-c2ccnc(Nc3cccc(S(C)(=O)=O)c3)n2)s1` : pKi at minimum 7?
true

Evaluate `CNc1nc(C)c(-c2ccnc(Nc3ccc(C)c(S(=O)(=O)N4CCOCC4)c3)n2)s1` : pKi at minimum 7?
false

###

Answer each item with its documented Ki.
# TARGET ENTITY: Cyclin-dependent kinase 7 (Homo sapiens, UniProt P50613)
# Sequence (P50613 whole entry): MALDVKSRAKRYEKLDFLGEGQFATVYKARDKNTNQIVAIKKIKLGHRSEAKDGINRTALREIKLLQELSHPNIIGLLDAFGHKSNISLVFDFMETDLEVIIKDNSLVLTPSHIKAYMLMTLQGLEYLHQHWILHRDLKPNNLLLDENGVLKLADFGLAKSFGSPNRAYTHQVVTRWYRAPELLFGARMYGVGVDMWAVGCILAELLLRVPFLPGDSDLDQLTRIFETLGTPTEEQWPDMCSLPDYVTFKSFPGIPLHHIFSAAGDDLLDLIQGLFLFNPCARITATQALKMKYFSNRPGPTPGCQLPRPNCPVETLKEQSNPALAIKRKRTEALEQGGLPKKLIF
Answers are plain numbers, in nM.

>>> assay_result("CNc1nc(C)c(-c2ccnc(Nc3cccc(S(=O)(=O)NC)c3)n2)s1 [CDK Inhibitor, 4]")
107
>>> assay_result("CNS(=O)(=O)c1cccc(Nc2nccc(-c3sc(N)nc3C)n2)c1 [CDK Inhibitor, 5]")
127

// returns reported Ki for input CNc1nc(C)c(-c2ccnc(Nc3cccc(S(C)(=O)=O)c3)n2)s1 [CDK Inhibitor, 6]
91

###

Each entry below carries its measured Ki, system: UniProtKB P11802.
Sequence (P11802 whole entry): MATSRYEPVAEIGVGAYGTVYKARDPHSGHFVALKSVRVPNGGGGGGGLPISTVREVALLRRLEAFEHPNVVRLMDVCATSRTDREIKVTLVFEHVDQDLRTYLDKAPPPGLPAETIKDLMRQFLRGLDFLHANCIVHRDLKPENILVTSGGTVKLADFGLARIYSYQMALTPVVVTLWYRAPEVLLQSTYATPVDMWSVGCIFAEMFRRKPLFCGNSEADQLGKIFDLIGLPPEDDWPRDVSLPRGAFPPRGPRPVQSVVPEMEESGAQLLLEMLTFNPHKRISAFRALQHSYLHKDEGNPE
Numbers only, in nM.

Below: 3 compounds and their reported Ki.
>>> assay_result("Cc1c(-c2ccnc(Nc3cccc(C#N)c3)n2)sc(=O)n1C [CDK Inhibitor, 12]")
102
>>> assay_result("CNc1nc(C)c(-c2ccnc(Nc3cccc(S(C)(=O)=O)c3)n2)s1 [CDK Inhibitor, 6]")
94
>>> assay_result("Cc1c(-c2ccnc(Nc3ccc(N4CCNCC4)cc3)n2)sc(=O)n1C [CDK Inhibitor, 14]")
68

// returns reported Ki for input CCNc1nc(C)c(-c2ccnc(Nc3cccc(S(C)(=O)=O)c3)n2)s1 [CDK Inhibitor, 7]
139
